Origin of values: PubChem BioAssay (NCI)

# Tested on: T-47D breast
# assay overview: NCI-60 one-dose screen, 48 h (100 = growth as untreated, 0 = no growth, -100 = all killed)
# assay setup: 10 µM unless noted
Compounds without any hit were thinned out: in the full panel of roughly 83,000, 20% have a hit.
measured attribute: growth (%)
Answers are plain numbers, in %.

Illustrative cases are given below, each with its answer.
• CC[N+]1(CC)CC[N+]2(CCCC(C)CC2)CC1 (centres undefined) = 103
• CN1CCN(Cc2ccc(NC(=O)c3cncc(C#Cc4cnc(N)c5ncccc45)c3)cc2C(F)(F)F)CC1 = 35.9
• Cc1cccc(N2CCC(=O)NC2=S)c1 = 105

Field: next compound
Please give the documented growth of `CC(=O)OC[C@]12CC[C@@H]([C@@H](C)c3nnc(-c4ccncc4)o3)[C@@H]1[C@H]1CC[C@@H]3[C@@]4(C)CC[C@H](OC(C)=O)C(C)(C)[C@@H]4CC[C@@]3(C)[C@]1(C)CC2` 66.5

----------
# Test system: SNB-19 CNS
# assay overview: NCI-60 one-dose screen, 48 h (100 = growth as untreated, 0 = no growth, -100 = all killed)
# assay setup: 10 µM unless noted
This is part of a sample that, as a whole, favours compounds with a hit. Of some 83,000 tested, about 20% had one in any assay.
Note to self: values exactly at 90% are Met. So growth at or above 90% is Met, below is Not met.

Is reported growth greater than or equal to 90% here: `C[C@H](C(=O)N(CCc1ccc(Cl)c(Cl)c1)Cc1cncs1)[C@@H]1CC[C@H](C[C@H](C)n2cc(CN3CCC(c4ccc(Cl)cc4)CC3)nn2)O1` Met

Is reported growth greater than or equal to 90% here: CCN1C(=O)N(CC)C2C1NN=c1s/c(=C\c3cnc(C)n3C)c(=O)n12 (stereo not given) Not met

Is reported growth greater than or equal to 90% here: `CC1=C(C(=O)Nc2nc(-c3ccc(Cl)cc3)cs2)[C@H](c2ccc(O)cc2)NC(=O)N1` Met

Is reported growth greater than or equal to 90% here: `O=S1(=O)C=C(c2ccccc2)C(c2ccccc2)=C1` Not met

Is reported growth greater than or equal to 90% here: `CCOC(=O)c1ccccc1-c1c2ccc(=[N+](C)C)cc-2oc2cc(N(C)C)ccc12` Not met

Is reported growth greater than or equal to 90% here: `COc1cc(-c2nc3c(ncc4ccc(=O)n(-c5ccccc5)c43)s2)cc(OC)c1OC` Not met

Is reported growth greater than or equal to 90% here: `O=C1c2ccccc2C(=O)c2c1cc1c(c2[N+](=O)[O-])OCO1` Not met

----------
# Test system: OVCAR-8 ovarian
# assay overview: NCI-60 one-dose screen, 48 h (100 = growth as untreated, 0 = no growth, -100 = all killed)
# assay setup: 10 µM unless noted
The panel holds about 83,000 compounds, 20% with a hit somewhere; the sample as a whole holds those more often. Activity calls are given as the source filed them. How the source made its calls: active means growth percent below 10; inactive means the rest.
Kindly state growth for each of the entries shown.

Illustrative cases are given below, each with its answer.
* CN(C)CCCC1(c2ccc(F)cc2)OCc2cc(-c3ccc4cc[nH]c4c3)ccc21 (stereo not drawn) | 57.9% (inactive)
* CCCCNc1nnc2n(Cc3ccccc3)c(=O)c3c4c(sc3n12)CCCC4 | 46.2% (inactive)

Field: next molecule
Recall the reported growth of `C#CC#CC#CC#CC#CC#CC#CC#CC[C@@H]1OC[C@@H](COC(=O)O[C@@H](C(=O)O[C@H]2C[C@@]3(O)[C@@H](OC(=O)c4ccccc4)[C@@H]4[C@]5(OC(C)=O)CO[C@@H]5C[C@H](O)[C@@]4(C)C(=O)[C@H](OC(C)=O)C(=C2C)C3(C)C)[C@@H](NC(=O)c2ccccc2)c2ccccc2)O1` on OVCAR-8 ovarian and write it down. 94.7% (inactive)
